target: triton-extracted alpha-synuclein from PD Tissue (Homo sapiens); construct: tissue Analytic Biological Services Inc; host or cells: human PD temporal cortex grey matter, Triton X-100 insoluble pellet; test: Alpha-synuclein tissue homogenate binding assay (Assay 1), displacement of [^3H]-1000; details: Aβ Tissue Ki / α-synuclein Tissue Ki
VALUE_KIND: Selectivity ratio (Assay 2/Assay 1)

Some compounds with known Selectivity ratio (Assay 2/Assay 1) results, for comparison:
# COMPOUND, TARGET_OF_ASSAY, Selectivity ratio (Assay 2/Assay 1)
data = [
    ("OCC(F)COC[C@H]1CN(c2ncc(C#Cc3ccc(-n4ccnc4)nc3)cn2)CCN1c1ncccn1 (stereo partly shown)", "triton-extracted alpha-synuclein from PD Tissue (Homo sapiens)", 1314),
    ("COC[C@H]1CN(c2cc3cnccn3c2)CCN1c1ncc(/C=C/c2ccc(-n3cccn3)nc2)cn1", "triton-extracted alpha-synuclein from PD Tissue (Homo sapiens)", 10000),
    ("COC[C@H]1CN(c2ncc(C#Cc3ccc(-c4cnco4)nc3)cn2)CCN1c1ncc(OCCF)cn1", "triton-extracted alpha-synuclein from PD Tissue (Homo sapiens)", 706),
]

P. COC[C@H]1CN(c2ncc(/C=C/c3ccc(-n4ccnc4)nc3)cn2)CCN1c1ncc(OCC(O)CF)cn1 (stereo partly shown)
Q. COC[C@H]1CN(c2ncc(C#Cc3cnc(-c4cnn(CCF)c4)nc3)cn2)CCN1c1ncncn1
R. COC[C@H]1CN(c2ncc(C#Cc3ccc(-c4cnco4)nc3)cn2)CCN1c1ccnc(F)c1
S. Cn1cc(-c2ccc(C#Cc3cnc(N4CCN(c5ncncn5)[C@@H](COCCF)C4)nc3)cn2)cn1
Task: Please rank these compounds by Selectivity ratio (Assay 2/Assay 1) in descending order. Reply: labels, ordered per the request.
Result: P, S, Q, R

---

molecular target: aggregated beta amyloid in AD tissue (Homo sapiens); experiment: Competitive radioligand binding to pathological aggregated beta amyloid in AD tissue (Assay 2), displacement of [^3H]-105; conditions: Aβ-rich AD frontal cortex homogenate, [^3H]-105, Kd 11.0 nM
Sequence (P05067 672-711 limits assumed): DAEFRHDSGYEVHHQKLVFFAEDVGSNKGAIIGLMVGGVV
pKi: −log10 of the molar value.
Listed next: entries and their corresponding pKi.

# CHEMICAL_STRING, RESULT
data = [
    ("COC[C@H]1CN(c2ncc(/C=C/c3ccc(-n4ccnc4)nc3)cn2)CCN1c1ccccn1", 5.89),
    ("Cc1cn(-c2ccc(/C=C/c3cnc(N4CCN(c5ncccn5)[C@@H](COCCF)C4)nc3)cn2)cn1", "≤ 5.92"),
    ("COC[C@H]1CN(c2ncc(C#Cc3ccc(N4CC[C@H](F)C4)nc3)cn2)CCN1c1ncccn1", "≤ 5.92"),
]

Task: Give pKi (aggregated beta amyloid in AD tissue (Homo sapiens)) of the following compound: `COC[C@H]1CN(c2ncc(C#Cc3ccc(-n4cnnc4F)nc3)cn2)CCN1c1ncccn1`
Result: ≤ 5.92

---

biological target: aggregated beta amyloid in AD tissue (Homo sapiens); assay: Competitive radioligand binding to pathological aggregated beta amyloid in AD tissue (Assay 2), displacement of [^3H]-105; conditions: Aβ-rich AD frontal cortex homogenate, [^3H]-105, Kd 11.0 nM
pKi: −log10 of the molar value.
Listed next: entries and their corresponding pKi.

Some molecules with known pKi results, for comparison:
# MOLECULE, pKi
records = [
    ("FCCOC[C@H]1CN(c2ncc(/C=C/c3ccc(-c4cnco4)nc3)cn2)CCN1c1ccncn1 [Example 42]", "≤ 5.92"),
    ("FCCOC[C@H]1CN(c2ncc(C#Cc3ccc(-n4cnnc4)nc3)cn2)CCN1c1ncccn1 [Example 71]", "≤ 5.92"),
    ("COC[C@H]1CN(c2ncc(C#Cc3cnc(-c4cnn(CCF)c4)nc3)cn2)CCN1c1ncncn1 [Example 46]", "≤ 5.92"),
    ("COC[C@H]1CN(c2ncc(/C=C/c3ccc(-c4cnn(CCF)c4)nc3)cn2)CCN1c1ncccn1 [Example 37]", "≤ 5.92"),
    ("COC[C@H]1CN(c2ccnc(F)c2)CCN1c1ncc(/C=C/c2ccc(-n3ccnc3)nc2)cn1 [Example 29]", 6.74),
    ("COC[C@H]1CN(c2ccccn2)CCN1c1ncc(/C=C/c2ccc(-n3ccnc3)nc2)cn1 [Example 18]", "≤ 4.92"),
    ("COCCOC[C@H]1CN(c2ncc(C#Cc3ccc(-n4ccnc4)nc3)c(F)n2)CCN1c1ncncn1 [Example 80]", "≤ 5.92"),
]

Please turn your attention to the following entry.
Task: What value of pKi has been reported for the following molecule? OC[C@H]1CN(c2cnccn2)CCN1c1ncc(/C=C/c2ccc(-n3ccnc3)nc2)cn1 [Example 23]
Result: ≤ 4.92

These entries and their values trace back to patent US20260224758A1.
